Data provenance: a collection of fitness landscapes (doi:10.1126/science.1257360)

B1: PhoQ; a variant is named by its letters at X, in order, P23837 (parent)
chain: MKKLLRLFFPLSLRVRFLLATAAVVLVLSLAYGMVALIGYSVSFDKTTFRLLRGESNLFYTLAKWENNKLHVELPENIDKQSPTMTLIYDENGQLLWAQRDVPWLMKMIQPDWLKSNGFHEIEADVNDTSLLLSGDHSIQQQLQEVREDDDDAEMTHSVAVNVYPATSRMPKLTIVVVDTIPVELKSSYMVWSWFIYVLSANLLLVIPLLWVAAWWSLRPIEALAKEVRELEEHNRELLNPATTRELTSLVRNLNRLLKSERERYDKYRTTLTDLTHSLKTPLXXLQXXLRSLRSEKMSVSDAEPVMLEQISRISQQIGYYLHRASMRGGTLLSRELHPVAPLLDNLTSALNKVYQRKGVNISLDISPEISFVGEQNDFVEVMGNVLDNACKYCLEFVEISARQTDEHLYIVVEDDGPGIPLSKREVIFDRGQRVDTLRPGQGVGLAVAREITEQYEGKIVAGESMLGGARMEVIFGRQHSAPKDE

Variants of: B1
Test: enrichment ratio after two sorts for PhoP signalling (ratio (wild type AVST 3.29)); higher = more functional
Details: with PhoP (E. coli)
Over roughly 140,000 sequences, “enrichment ratio after two sorts for PhoP signalling” has its median near 0; the highest 2% begin near 11. For the sample, the highest values were picked, then their nearest neighbours and some sequences at random.
Listed here are variants together with their documented enrichment ratio.
No unit in the answer, only the number.

mutant-name: GQCI
result-number: 2.43

// query Recorded enrichment ratio for "GVCW" , please?
// result 11.5

// query Recorded enrichment ratio for "MNAS" , please?
// result 6.24
